test: Stability indicating HPLC assay and related substances on storage (Example 3)
Format: physicochemical
experimental context: 1 month, 40° C./75% RH
Decision: Known Related Substances HN67003 compared against 0.6%; not below it gives true, below it gives false.

Evaluate CN1CC[C@]23c4c5ccc(O)c4O[C@H]2[C@@H](O[C@@H]2O[C@H](C(=O)O)[C@@H](O)[C@H](O)[C@H]2O)C=C[C@H]3[C@H]1C5 [Morphine-6-glucuronide base, morphine-6-β-D-glucuronide] : Known Related Substances HN67003 at minimum 0.6%?
false

Evaluate CN1CCC23c4c5ccc(O)c4OC2C(OC2OC(C(=O)O)C(O)C(O)C2O)C=CC3C1C5.CN1CCC23c4c5ccc(O)c4OC2C(OC2OC(C(=O)O)C(O)C(O)C2O)C=CC3C1C5.O=S(=O)(O)O (stereo not drawn) [Morphine-6-glucuronide sulphate] : Known Related Substances HN67003 at minimum 0.6%?
true

Evaluate CN1CC[C@]23c4c5ccc(O)c4O[C@H]2[C@@H](O[C@@H]2O[C@H](C(=O)O)[C@@H](O)[C@H](O)[C@H]2O)C=C[C@H]3[C@H]1C5.Cl [Morphine-6-glucuronide hydrochloride] : Known Related Substances HN67003 at minimum 0.6%?
true

Evaluate CN1CCC23c4c5ccc(O)c4OC2C(OC2OC(C(=O)O)C(O)C(O)C2O)C=CC3C1C5.O=P(O)(O)O (stereo not drawn) [Morphine-6-glucuronide phosphate] : Known Related Substances HN67003 at minimum 0.6%?
false

Evaluate CN1CCC23c4c5ccc(O)c4OC2C(OC2OC(C(=O)O)C(O)C(O)C2O)C=CC3C1C5.CN1CCC23c4c5ccc(O)c4OC2C(OC2OC(C(=O)O)C(O)C(O)C2O)C=CC3C1C5.O=C(O)C=CC(=O)O (stereo not drawn) [Morphine-6-glucuronide fumarate] : Known Related Substances HN67003 at minimum 0.6%?
false

Evaluate CN1CCC23c4c5ccc(O)c4OC2C(OC2OC(C(=O)O)C(O)C(O)C2O)C=CC3C1C5.CN1CCC23c4c5ccc(O)c4OC2C(OC2OC(C(=O)O)C(O)C(O)C2O)C=CC3C1C5.O=C(O)C=CC(=O)O (stereo not drawn) [Morphine-6-glucuronide maleate] : Known Related Substances HN67003 at minimum 0.6%?
true

###

test: Stability indicating HPLC assay and related substances on storage (Example 3)
Format: physicochemical
experimental context: 3 months, 25° C./60% RH
Labelling: Total Known reported below 1% becomes met; at or above becomes not met.

Is Total Known of Br.CN1CC[C@]23c4c5ccc(O)c4O[C@H]2[C@@H](O[C@@H]2O[C@H](C(=O)O)[C@@H](O)[C@H](O)[C@H]2O)C=C[C@H]3[C@H]1C5 [Morphine-6-glucuronide hydrobromide] strictly below 1%?
met

Is Total Known of CN1CC[C@]23c4c5ccc(O)c4O[C@H]2[C@@H](O[C@@H]2O[C@H](C(=O)O)[C@@H](O)[C@H](O)[C@H]2O)C=C[C@H]3[C@H]1C5 [Morphine-6-glucuronide base, morphine-6-β-D-glucuronide] strictly below 1%?
met

Is Total Known of CN1CCC23c4c5ccc(O)c4OC2C(OC2OC(C(=O)O)C(O)C(O)C2O)C=CC3C1C5.CN1CCC23c4c5ccc(O)c4OC2C(OC2OC(C(=O)O)C(O)C(O)C2O)C=CC3C1C5.O=C(O)C=CC(=O)O (stereo not shown) [Morphine-6-glucuronide maleate] strictly below 1%?
not met

Is Total Known of CN1CCC23c4c5ccc(O)c4OC2C(OC2OC(C(=O)O)C(O)C(O)C2O)C=CC3C1C5.O=P(O)(O)O (stereo not shown) [Morphine-6-glucuronide phosphate] strictly below 1%?
not met

Is Total Known of CN1CCC23c4c5ccc(O)c4OC2C(OC2OC(C(=O)O)C(O)C(O)C2O)C=CC3C1C5.CN1CCC23c4c5ccc(O)c4OC2C(OC2OC(C(=O)O)C(O)C(O)C2O)C=CC3C1C5.O=C(O)C=CC(=O)O (stereo not shown) [Morphine-6-glucuronide fumarate] strictly below 1%?
not met

Is Total Known of CN1CCC23c4c5ccc(O)c4OC2C(OC2OC(C(=O)O)C(O)C(O)C2O)C=CC3C1C5.CN1CCC23c4c5ccc(O)c4OC2C(OC2OC(C(=O)O)C(O)C(O)C2O)C=CC3C1C5.O=S(=O)(O)O (stereo not shown) [Morphine-6-glucuronide sulphate] strictly below 1%?
not met

Is Total Known of CN1CC[C@]23c4c5ccc(O)c4O[C@H]2[C@@H](O[C@@H]2O[C@H](C(=O)O)[C@@H](O)[C@H](O)[C@H]2O)C=C[C@H]3[C@H]1C5.Cl [Morphine-6-glucuronide hydrochloride] strictly below 1%?
not met

###

test: Stability indicating HPLC assay and related substances on storage (Example 3)
Assay type: physicochemical
experimental context: 1 month, 25° C./60% RH
Experimental: Assay (% w/w) and related substances determination Each test material was stored between 2-8*C prior to placing on stability. Each material was sub-divided into 900 mg aliquots, transferred to brown opaque HDPE plastic bottles and flushed with Argon prior to sealing. Sufficient samples were provided for each time point as well as spares for each storage condition. The samples were placed in appropriate incubators previously commissioned at storage conditions 25° C./60% RH, 40° C./75% RH and 60° C. […]
Labelling: Total Related Substances reported below 1% becomes 1; at or above becomes -1.

Is Total Related Substances of CN1CCC23c4c5ccc(O)c4OC2C(OC2OC(C(=O)O)C(O)C(O)C2O)C=CC3C1C5.CN1CCC23c4c5ccc(O)c4OC2C(OC2OC(C(=O)O)C(O)C(O)C2O)C=CC3C1C5.O=S(=O)(O)O (centres unmarked) [Morphine-6-glucuronide sulphate] strictly below 1%?
-1

Is Total Related Substances of CN1CCC23c4c5ccc(O)c4OC2C(OC2OC(C(=O)O)C(O)C(O)C2O)C=CC3C1C5.CN1CCC23c4c5ccc(O)c4OC2C(OC2OC(C(=O)O)C(O)C(O)C2O)C=CC3C1C5.O=C(O)C=CC(=O)O (centres unmarked) [Morphine-6-glucuronide fumarate] strictly below 1%?
1

Is Total Related Substances of CN1CCC23c4c5ccc(O)c4OC2C(OC2OC(C(=O)O)C(O)C(O)C2O)C=CC3C1C5.O=P(O)(O)O (centres unmarked) [Morphine-6-glucuronide phosphate] strictly below 1%?
-1

Is Total Related Substances of CN1CC[C@]23c4c5ccc(O)c4O[C@H]2[C@@H](O[C@@H]2O[C@H](C(=O)O)[C@@H](O)[C@H](O)[C@H]2O)C=C[C@H]3[C@H]1C5.Cl [Morphine-6-glucuronide hydrochloride] strictly below 1%?
-1

###

test: Stability indicating HPLC assay and related substances on storage (Example 3)
Type: physicochemical
experimental context: 1 month, 25° C./60% RH
Provide the reported M6G Assay, Corrected for the salt form of each item.
Give just the number in % w/w; leave the unit off.

# molecule CN1CCC23c4c5ccc(O)c4OC2C(OC2OC(C(=O)O)C(O)C(O)C2O)C=CC3C1C5.O=P(O)(O)O (centres unmarked) [Morphine-6-glucuronide phosphate] ; its M6G Assay, Corrected for the salt form = 110.76

# molecule Br.CN1CC[C@]23c4c5ccc(O)c4O[C@H]2[C@@H](O[C@@H]2O[C@H](C(=O)O)[C@@H](O)[C@H](O)[C@H]2O)C=C[C@H]3[C@H]1C5 [Morphine-6-glucuronide hydrobromide] ; its M6G Assay, Corrected for the salt form = 100.11

# molecule CN1CCC23c4c5ccc(O)c4OC2C(OC2OC(C(=O)O)C(O)C(O)C2O)C=CC3C1C5.CN1CCC23c4c5ccc(O)c4OC2C(OC2OC(C(=O)O)C(O)C(O)C2O)C=CC3C1C5.O=S(=O)(O)O (centres unmarked) [Morphine-6-glucuronide sulphate] ; its M6G Assay, Corrected for the salt form = 90.51

# molecule CN1CC[C@]23c4c5ccc(O)c4O[C@H]2[C@@H](O[C@@H]2O[C@H](C(=O)O)[C@@H](O)[C@H](O)[C@H]2O)C=C[C@H]3[C@H]1C5 [Morphine-6-glucuronide base, morphine-6-β-D-glucuronide] ; its M6G Assay, Corrected for the salt form = 99.61

# molecule CN1CCC23c4c5ccc(O)c4OC2C(OC2OC(C(=O)O)C(O)C(O)C2O)C=CC3C1C5.CN1CCC23c4c5ccc(O)c4OC2C(OC2OC(C(=O)O)C(O)C(O)C2O)C=CC3C1C5.O=C(O)C=CC(=O)O (centres unmarked) [Morphine-6-glucuronide maleate] ; its M6G Assay, Corrected for the salt form = 97.56

###

test: Stability indicating HPLC assay and related substances on storage (Example 3)
Type: physicochemical
experimental context: 1 month, 40° C./75% RH
Method: Assay (% w/w) and related substances determination Each test material was stored between 2-8*C prior to placing on stability. Each material was sub-divided into 900 mg aliquots, transferred to brown opaque HDPE plastic bottles and flushed with Argon prior to sealing. Sufficient samples were provided for each time point as well as spares for each storage condition. The samples were placed in appropriate incubators previously commissioned at storage conditions 25° C./60% RH, 40° C./75% RH and 60° C. […]
measure: M6G Assay, As is basis (% w/w)
Give just the number in % w/w; leave the unit off.

# compound CN1CC[C@]23c4c5ccc(O)c4O[C@H]2[C@@H](O[C@@H]2O[C@H](C(=O)O)[C@@H](O)[C@H](O)[C@H]2O)C=C[C@H]3[C@H]1C5.Cl [Morphine-6-glucuronide hydrochloride] ; its M6G Assay, As is basis = 69.13

# compound CN1CCC23c4c5ccc(O)c4OC2C(OC2OC(C(=O)O)C(O)C(O)C2O)C=CC3C1C5.CN1CCC23c4c5ccc(O)c4OC2C(OC2OC(C(=O)O)C(O)C(O)C2O)C=CC3C1C5.O=S(=O)(O)O (centres unmarked) [Morphine-6-glucuronide sulphate] ; its M6G Assay, As is basis = 65.04

Measured values drawn from patent US20060166900A1 for this set.
